This collection of values is drawn from BindingDB's records for doi:10.1016/j.bmcl.2015.11.098.

target: Metabotropic glutamate receptor 5 (Homo sapiens, UniProt P41594); assay: Positive allosteric modulation of human mGlu5 expressed in HEK293 cells assessed as glutamate-induced calcium mobilization
Sequence (P41594 whole entry): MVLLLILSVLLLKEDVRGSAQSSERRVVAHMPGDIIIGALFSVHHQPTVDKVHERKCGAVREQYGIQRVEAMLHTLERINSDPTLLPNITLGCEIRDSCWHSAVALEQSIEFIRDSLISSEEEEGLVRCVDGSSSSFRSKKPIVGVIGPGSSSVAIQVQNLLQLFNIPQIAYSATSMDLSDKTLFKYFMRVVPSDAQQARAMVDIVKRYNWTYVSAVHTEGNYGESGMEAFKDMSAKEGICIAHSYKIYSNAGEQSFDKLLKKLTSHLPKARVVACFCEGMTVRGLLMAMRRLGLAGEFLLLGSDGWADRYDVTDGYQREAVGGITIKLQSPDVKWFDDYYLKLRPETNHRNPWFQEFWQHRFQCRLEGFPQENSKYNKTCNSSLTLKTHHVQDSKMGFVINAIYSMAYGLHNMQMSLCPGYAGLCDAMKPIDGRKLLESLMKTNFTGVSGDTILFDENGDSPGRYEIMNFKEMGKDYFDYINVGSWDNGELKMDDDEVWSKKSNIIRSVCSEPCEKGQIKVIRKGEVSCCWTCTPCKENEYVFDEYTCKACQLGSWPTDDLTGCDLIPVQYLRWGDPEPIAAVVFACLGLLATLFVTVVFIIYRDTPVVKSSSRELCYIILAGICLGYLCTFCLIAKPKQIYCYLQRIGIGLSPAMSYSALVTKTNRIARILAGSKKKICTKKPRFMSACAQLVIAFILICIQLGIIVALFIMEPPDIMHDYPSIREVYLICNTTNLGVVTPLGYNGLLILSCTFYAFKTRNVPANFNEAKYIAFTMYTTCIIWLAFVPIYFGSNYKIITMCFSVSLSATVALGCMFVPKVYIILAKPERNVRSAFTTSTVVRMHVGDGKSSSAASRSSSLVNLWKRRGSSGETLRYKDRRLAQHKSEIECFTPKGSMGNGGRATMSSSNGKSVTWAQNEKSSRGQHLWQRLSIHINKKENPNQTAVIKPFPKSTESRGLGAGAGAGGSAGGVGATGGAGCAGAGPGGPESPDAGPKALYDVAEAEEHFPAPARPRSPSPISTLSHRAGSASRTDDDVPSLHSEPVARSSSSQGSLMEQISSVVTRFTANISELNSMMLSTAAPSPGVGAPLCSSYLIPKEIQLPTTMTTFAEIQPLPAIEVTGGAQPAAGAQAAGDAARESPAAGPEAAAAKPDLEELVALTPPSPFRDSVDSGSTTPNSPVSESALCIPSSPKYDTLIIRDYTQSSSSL
experimental endpoint: EC50 (nM)
Answer format: numeric, nM implied, no suffix.

Record "O=C1c2nc(COc3ccccc3)nn2CCN1c1ccc(F)cc1" . Reported EC50: 2810
